# System: A-172 Glioblastoma multiforme cell line
# protocolSummary: DIMSCAN cytotoxicity, fenretinide + L-threo-sphinganines 3:1 (Example B4)
# Format: cell-based, human
# conditionSet: 4-HPR 6 μM + L-threo-sphinganine 2 μM, 96 h
property: Fa (fraction affected)

CCCCCCCCCCCCCCCCC[C@H](O)[C@@H](N)CO
0.983
CCCCCCCCCCCCCCCC[C@H](O)[C@@H](N)CO
0.998
CCCCCCCCCCCC[C@H](O)[C@@H](N)CO
0.991
CCCCCCCCC[C@H](O)[C@@H](N)CO
0.849
CCCCCCCCCCCCCCCCCC[C@H](O)[C@@H](N)CO
0.996
CCCCCCCCCCCCCCC[C@H](O)[C@@H](N)CO [C18, (2S,3S)-2-amino-1,3-octadecanediol, reference compound]
0.956
CCCCCCCCCCCCCC[C@H](O)[C@@H](N)CO
0.996
CCCCCCCCCCC[C@H](O)[C@@H](N)CO
0.717

Numbers sourced from patent US20110152267A1.
